tested on: NCI/ADR-RES ovarian; assay: NCI tumour cell line growth inhibition, 48 h
measured_endpoint: GI50

| compound | value_measured |
| --- | --- |
| COc1ccc2cc(-c3ccoc(=O)c3-c3cc(OC)c(OC)c(OC)c3)ccc2c1 | 0.0528 µM |
| C=CC(=O)N(C)[C@H]1C[C@H]2OC(C)(C1OC)n1c3ccccc3c3c4c(c5c6ccccc6n2c5c31)C(=O)NC4 (some centres not stated) | 0.182 µM |
| CCN1CCC(CCOC)(CN2c3ccccc3Sc3ccc(Cl)cc32)C1 (configuration not stated) | 1.73 µM |
| CC(C)(C)c1n[nH]c(=S)n(/N=C/c2ccc(F)c(Oc3ccccc3)c2)c1=O | 35.1 µM |
| COc1ccc(-c2cc(-c3ccccc3)nc(SCCCC(=O)NO)n2)cc1 | 0.267 µM |
| CCCn1c(C)nc2c1C(=O)c1ccccc1C2=O | 22.9 µM |
| CC(CN1CCN(CCOCCO)CC1)CN1c2ccccc2Sc2ccc(Cl)cc21 (configuration not stated) | 4.39 µM |

###

TGI listing for selected compounds.
tested on: U251 CNS; experiment: NCI tumour cell line growth inhibition, 48 h

| compound | assayed_target | TGI |
| --- | --- | --- |
| CCC1(CC)CC(=NNS(=O)(=O)c2ccc(C)cc2)C1 | U251 CNS | > 100 µM |
| COC(=O)c1c2n(c3ccccc13)C[C@H]1OC(C)(C)O[C@@H]21 | U251 CNS | > 100 µM |
| O=C1C2CC=CCC2C(=O)N1n1c(-c2ccccc2)n[nH]c1=O (stereo not drawn) | U251 CNS | > 100 µM |

###

test system: HCT-15 colon; experiment: NCI tumour cell line growth inhibition, 48 h
measured_endpoint: TGI

| compound | measured_endpoint | value_measured |
| --- | --- | --- |
| COC(=O)[C@@H]1CN(C(=O)CCc2ccccc2)C(=O)N1C(=O)OCc1ccccc1 | TGI | > 100 µM |
| CN(C(=O)Cc1cc(Cl)c(Cl)cc1N=C=S)[C@H]1CCCC[C@@H]1N1CCCC1 | TGI | 29.1 µM |
| CC1CCCc2c(C#N)c(N)nc(-c3ccc(Cl)cc3)c21 (centres undefined) | TGI | > 100 µM |
| CC1=C(CCC(C)N(C)Cc2ccc(OCCCN3CCCC3)cc2)C(C)(C)CCC1 (centres undefined) | TGI | 4.8 µM |
| COc1cc(C(=O)C/C(CCC(=O)Nc2ccccc2[N+](=O)[O-])=N\NC(=O)CC#N)ccc1O | TGI | > 100 µM |
| CN(C)CCNc1nc(-c2ccc3ccccc3c2)nc2nc[nH]c12 | TGI | 18.3 µM |
| Cc1c(/C=N/NC(=S)Nc2ccccc2Cl)c(=O)n(-c2ccccc2)n1C | TGI | > 100 µM |
| COc1cccc(C=Nc2cc(C)ccn2)c1O.COc1cccc(C=Nc2cc(C)ccn2)c1O.[Cu] | TGI | 36 µM |
| CS(=O)(=O)Oc1cccc(/C=N/N=C(\N)NO)c1 | TGI | > 100 µM |
| CC(C)(C)c1ccc(OCCCCCCN2CCNCC2)cc1 | TGI | 10 µM |
| COc1ccc(NS(=O)CCCc2ccccc2)cc1 (centres undefined) | TGI | > 100 µM |
| COc1ccc(OC)c(NC(=O)CCC/C(CC(=O)c2ccc(O)c(OC)c2)=N\NC(=O)C[N+](C)(C)C)c1 | TGI | > 100 µM |
| CN(C)c1nc(=Nc2ccc3ccccc3c2)ss1 | TGI | > 100 µM |
| CC1C(c2ccccc2)OP(=O)(OC(C#N)c2ccccc2)N1C (centres undefined) | TGI | > 100 µM |
| c1ccc2c(c1)c(NCCCCN1CCCCC1)cc1c3ccccc3c(NCCCCN3CCCCC3)cc21 | TGI | 47.5 µM |
| O=C1C2CC=CCC2C(=O)N1n1c(-c2ccccc2)n[nH]c1=O (centres undefined) | TGI | > 100 µM |
| CCOC(=O)/C(Cl)=C(\C)Nc1nc2c(ccc3ccccc32)s1 | TGI | > 100 µM |
| CC1=C(N2CC2)C(=O)c2nc3n(c2C1=O)CCC3OC(=O)CCl (centres undefined) | TGI | 0.0825 µM |
| Cc1ccc(-c2nc3ccc(Cl)cc3[nH]2)cc1 | TGI | > 100 µM |
| CC1(CCC2C=CCC2)CCCNC1=S (centres undefined) | TGI | > 10 µM |
| CN(C)CCCNc1ccc2ncn3c4ccccc4c(=O)c1c23 | TGI | 85.6 µM |
| COc1ccc([C@@H]2ON(C)[C@H]3CN(C)C(=O)[C@@H]23)cc1 | TGI | > 100 µM |
| C/C=C/[P+](c1ccccc1)(c1ccccc1)c1ccccc1 | TGI | > 100 µM |
| COc1ccc(-c2c(N)n(-c3nc4ccccc4s3)c(=O)c3cc([N+](=O)[O-])ccc23)cc1 | TGI | > 100 µM |
| CC1(C)CC(=O)c2c(nc3ccc4ccccc4c3c2-c2ccc(NC(=O)CCCC(=O)Nc3ccc(-c4c5c(nc6ccc7ccccc7c46)CC(C)(C)CC5=O)cc3)cc2)C1 | TGI | > 100 µM |
| Cc1n[nH]c(=O)c2cc(-c3ccccc3)[nH]c12 | TGI | > 100 µM |
| COc1ccc(NC(=O)/C(=N\NC(=O)C[n+]2ccccc2)c2c(O)c3ccc(O)cc3oc2=O)c([N+](=O)[O-])c1 | TGI | > 100 µM |
| Cc1ccc(NC(=O)/C=C/c2ccccc2)c(C(N)=O)c1 | TGI | > 100 µM |
| CCOC(=O)C1Oc2ccc([N+](=O)[O-])c3c2C1(O)CCC3 (centres undefined) | TGI | > 100 µM |

Values from PubChem BioAssay (NCI)
